- experiment: Solubility of compound in water
- Format: physicochemical
- condition_parameters: water; read-out: solubility
readout_label: solubility

Please review the following examples before continuing.
NC(=O)c1ccc(NC(=O)c2ccc3ccccc3c2)cc1    < 5 µg/mL
CC(C)(C)OC(=O)NCc1ccccc1NC(=O)c1ccc2ccccc2n1    < 5 µg/mL
NC(=O)c1ccccc1NC(=O)c1cc2ccccc2s1    < 5 µg/mL
NC(=O)c1cccc(NC(=O)c2ccc(-c3ccccc3)cc2)c1    25 µg/mL
COC(=O)c1ccccc1NC(=O)c1cnc2ccccc2c1    < 5 µg/mL
O=C(Nc1ccccc1)c1ccc2ccccc2n1    25 µg/mL

Now let's try a different one.
What the record says about NC(=O)c1cccc(NC(=O)c2ccc3ccccc3c2)c1 : solubility is < 5 µg/mL

From: ChEMBL document CHEMBL4673385
